Test system: barnyardgrass
Experiment: Test Example 1: foliage treatment, upland pot test
Assay type: in vivo, Echinochloa crus-galli L.
Settings: active ingredient 1000 g/ha, observed 18th to 23rd day, 0 = non-treated, 100 = complete kill
Entries and their Growth controlling degree (%) Barnyardgrass values follow.
readout_label: Growth controlling degree (%) Barnyardgrass

- CC(C)C(c1cnccc1C(F)(F)F)N(C)C(=O)Cc1ccccc1Cl (stereo not drawn): 90
- CCN(C(=O)Cc1cccc(C(F)(F)F)c1)C(c1cnccc1C(F)(F)F)C(C)C (stereo not drawn): 70
- CCN(C(=O)Cc1cccc(C(F)(F)F)c1F)C(c1cnccc1C(F)(F)F)C(C)C (stereo not drawn): 80
- CC(C)C(c1cnccc1C(F)(F)F)N(C)C(=O)Cc1cccc(F)c1F (stereo not drawn): 80
- CC(C)C(c1cnccc1C(F)(F)F)N(C)C(=O)Cc1ccc(F)cc1F (stereo not drawn): 90
- CC(C)C(c1cnccc1C(F)(F)F)N(C)C(=O)Cc1ccccc1 (stereo not drawn): 80
